Provide the recorded AUC(0-t) for the entries that follow.
# ASSAY_PROTOCOL: Pharmacokinetics in ICR mice after intravenous and intragastric administration
# Format: in vivo
# PARTICULARS: male, ICR, mouse, plasma, iv, 2 mg/kg, ICR mice, IV 2 mg/kg, mean of 3 animals; read-out: AUC(0-t)
Kindly answer with a numeric value in µg·h/mL, unit omitted.

Field request: AUC(0-t) | item: COc1nc(C2CC2)ncc1-c1nc2c(n1C(C)C)[C@@]1(C(=O)Nc3cc(Cl)ccc31)N(c1cc(Cl)cnc1C)C2=O [Example S-159]
4.18

Field request: AUC(0-t) | item: COc1cc(C(F)(F)F)ncc1-c1nc2c(n1C(C)C)[C@@]1(C(=O)Nc3cc(Cl)ccc31)N(c1cc(Cl)ccc1C)C2=O [Example S-138]
5.29

Field request: AUC(0-t) | item: COc1cc(OC(C)C)ncc1-c1nc2c(n1C(C)C)[C@@]1(C(=O)Nc3cc(Cl)ccc31)N(c1cc(Cl)cnc1C)C2=O [Example S-137]
11.6

Field request: AUC(0-t) | item: COc1ccc(-c2nc3c(n2C(C)C)[C@@]2(C(=O)Nc4cc(Cl)ccc42)N(c2cc(Cl)cnc2C)C3=O)c(OC)c1 [Example S-61]
4.52

Field request: AUC(0-t) | item: COc1nc(N(C)C)ncc1-c1nc2c(n1C(C)C)[C@@]1(C(=O)Nc3cc(Cl)ccc31)N(c1cc(Cl)cnc1C)C2=O [Example S-135]
7.04

Field request: AUC(0-t) | item: COc1cc(C2CC2)ncc1-c1nc2c(n1C(C)C)[C@@]1(C(=O)Nc3cc(Cl)ccc31)N(c1cc(Cl)ccc1C)C2=O [Example S-103]
6.66
